Hey, just so you know, these numbers are from PubChem BioAssay (NCI).

test system: A498 renal; experiment: NCI tumour cell line growth inhibition, 48 h
PROPERTY_NAME: TGI

Assign TGI to the following record: CN(C)CN1C(=O)/C(=N\n2c(-c3ccncc3)n[nH]c2=S)c2ccccc21
> 100 µM

Assign TGI to the following record: O=C1c2c(Br)sc(Br)c2[C@H]2OC(=S)N[C@@H]12
32.5 µM

Assign TGI to the following record: CCOP(=O)(CC1OC(CO)C(O)C1O)OCC (stereo not given)
> 100 µM

Assign TGI to the following record: N#Cc1c(-c2ccc(Cl)cc2)csc1NC(=O)Nc1cccc(C(F)(F)F)c1
4.3 µM

Assign TGI to the following record: C[C@@H](CCO)OC1OC(COC(=O)C(C)(C)C)C(OC(=O)C(C)(C)C)C(OC(=O)C(C)(C)C)C1OC(=O)C(C)(C)C (stereo not given in full)
> 100 µM

Assign TGI to the following record: CCCCCc1cc(CCCC)sc1-c1ccco1
> 100 µM

Assign TGI to the following record: Cc1cc(N(CCC#N)CCC#N)ccc1/C=C/C(=O)Nc1ccccc1Cl
> 100 µM

Assign TGI to the following record: CCCC(=O)Nc1cn(COC)c(C(=O)N2C[C@H]3C[C@@]34C2=CC(=O)c2[nH]cc(C)c24)n1
17.9 µM

Assign TGI to the following record: COc1ccc(-c2nn3ncccc3c2-c2ccnc(Nc3cccc(C(F)(F)F)c3)n2)cc1
> 20.3 µM

Assign TGI to the following record: Fc1ccc(OCc2ccc3nc(-c4ccccc4)c(Cl)nc3c2)cc1
50.1 µM

====

Could you please report measured TGI for the items listed next?
test system: EKVX NSCLC; test: NCI tumour cell line growth inhibition, 48 h

Assign TGI to the following record: CC(=O)OC1Oc2cc(C)c(C)cc2-c2oc(=O)c(-c3ccccc3)cc21 (configuration not stated)
> 100 µM

Assign TGI to the following record: Clc1sc(Cl)c2c1[C@H](Br)C[C@@H]2Cl
> 100 µM

Assign TGI to the following record: CC(=O)c1c(Nc2ccc(F)c(F)c2F)[nH]c2c(F)cc(F)cc2c1=O
> 40.4 µM

Assign TGI to the following record: COc1ccc(C(=C2C(=O)OC(=O)C2=C(C)C)c2ccc(OC)cc2)cc1
> 100 µM

Assign TGI to the following record: N#CC1=C(N)NC(=S)C(C#N)C12Nc1ccccc1S2 (configuration not stated)
8.04 µM

Assign TGI to the following record: NCCn1c2c(c3ccccc3c1=O)C(=O)c1ccccc1-2
4.48 µM

Assign TGI to the following record: OCCN(CCO)c1ncnc2c1sc(=S)n2-c1ccccc1
> 100 µM

====

test system: MOLT-4 leukemia; assay: NCI tumour cell line growth inhibition, 48 h
Could you please report measured TGI for the items listed next?

Assign TGI to the following record: COc1cc2c3cc1Oc1cc(ccc1O)C[C@@H]1c4c(cc(OC)c(O)c4Oc4ccc(cc4)C[C@@H]3[N+](C)(C)CC2)CC[N+]1(C)C
> 100 µM

Assign TGI to the following record: Cc1ccc(S(=O)c2ccc([N+](=O)[O-])c3nonc23)cc1 (stereo unspecified)
6.96 µM

Assign TGI to the following record: CC12O[Te]34OC1(C)C(C)(O3)C2(C)O4
34.6 µM

Assign TGI to the following record: CCc1nc2c([nH]1)C(=O)c1ccccc1C2=O
> 100 µM

Assign TGI to the following record: COc1ccc(-c2cn(-c3cc(OC)c(OC)c(OC)c3)c(=O)n2-c2ccccc2)cc1
> 100 µM

Assign TGI to the following record: CCn1c(-c2nonc2N)nc2c(C#CC(C)(C)O)ncc(OC[C@@H]3CCCN3)c21
> 25 µM

Assign TGI to the following record: O/N=C/[C@H]1COC2(CCCCC2)O1
> 100 µM

Assign TGI to the following record: O=C(O)C12C3C4(C(=O)O)C1C1(C(=O)O)C2C3(C(=O)O)C41 (stereo unspecified)
> 100 µM

Assign TGI to the following record: C(/C=C/N1CCCC1)=C\c1nc(N2CCCC2)c2ccccc2n1
52.3 µM

Assign TGI to the following record: O=C(NOC(=O)c1ccc([N+](=O)[O-])cc1)c1ccc(Cl)cc1
> 100 µM

Assign TGI to the following record: O=C1Nc2ccc(Br)cc2C1=Nc1ccc(Cl)cc1
> 100 µM
